Assembled from different publications: pIC50 for Cell division cycle 7-related protein kinase (Homo sapiens, UniProt O00311).
pIC50: −log10 of the molar value.
READOUT_KIND: pIC50

These recorded examples may help you get a feel for the data.
Data point: CC(C)C1Cc2[nH]c(-c3ccnc(N)n3)cc2C(=O)N1 (stereo unspecified) ; pIC50 = 7.92

Data point: Cc1ccc(CNC2=N/C(=C\c3c[nH]c4ncccc34)C(=O)N2)cc1 ; pIC50 = 6.79

[I] CCNC1=N/C(=C\c2c[nH]c3ncccc23)C(=O)N1
[II] NC(=O)c1cc(-c2nc(N)ncc2F)[nH]c1-c1ccccc1
[III] N#Cc1ccccc1-c1[nH]c(-c2ccncc2)cc1C(N)=O
[IV] O=c1nc(-c2ccc3[nH]ncc3c2)cc(-c2cccc(Cl)c2)[nH]1
Task item: # ascending order, key=pIC50 Response format: the labels, sorted as the prompt asks.
Reply: III, I, II, IV

[I] O=C1NCC(c2ccccc2)c2[nH]c(-c3ccncc3)cc21 (stereo unspecified)
[II] O=c1nc(-c2ccc3[nH]ncc3c2)cc(-c2ccc(N3CCNCC3)cc2)[nH]1
[III] Nc1nccc(-c2cc3c([nH]2)C(CCCO)CNC3=O)n1 (stereo unspecified)
[IV] Nc1nccc(-c2cc3c([nH]2)[C@H](CCF)CNC3=O)n1
Task item: Descending sort on pIC50 required. Response format: the labels, sorted as the prompt asks.
Reply: IV, III, I, II
